- target-under-test: SARS-CoV-2 3CL protease (Severe acute respiratory syndrome coronavirus 2, UniProt P0DTD1)
- test: Inhibitory activity test against SARS-CoV-2 3CL proteases
- Format: biochemical
- assay-setup: read-out: IC50 (50% SARS-CoV-2 3CL protease inhibitory concentration)
pIC50: −log10 of the molar value.
observation-type: pIC50

(Q) Can you look up the measured pIC50 of Cn1cnc(Cn2c(=O)c3cc(F)c(-c4cc5c(cc4Cl)NC(=O)C5)cc3n(Cc3cc(F)c(F)c(F)c3)c2=O)n1 [Compound I-0249] for me?
(A) 7.48

(Q) # lookup: pIC50 of COc1cc(-c2cc(CO)ccc2Cl)cc2c1c(=O)n(-c1cncc(C)c1)c(=O)n2Cc1ccc(F)c(C#N)c1 [Compound I-0031]
(A) > 7.00

(Q) May I ask what pIC50 has been recorded for COc1nc(N2CC[C@@H](C#N)C2)cc2c1c(=O)n(-c1cncc(Cl)c1)c(=O)n2-c1ccc(F)c(F)c1 [Compound I-0949] ?
(A) > 7.00

(Q) Data request, read-out pIC50, for Cn1cnc(Cn2c(=O)c3c4ncn(C)c4c(N4CC[C@@H](F)C4)cc3n(Cc3cc(F)c(F)c(F)c3)c2=O)n1 (racemic) [Compound I-0554]
(A) 6.48

(Q) Any idea what its pIC50 is? The molecule is Cn1cnc(Cn2c(=O)c3c4c(c(-c5cc(N=S(C)(C)=O)ccc5Cl)cc3n(Cc3cc(F)c(F)c(F)c3)c2=O)CCO4)n1 [Compound I-0472]
(A) > 7.00

(Q) Item under review: O=c1[nH]cccc1Cn1c(=O)c2ccc(N3C[C@@H]4C[C@H]3CN4)cc2n(Cc2cc(F)c(F)c(F)c2)c1=O [Compound I-0141] . Reported pIC50?
(A) > 7.00

(Q) Requested field: pIC50. Item: COc1nc(N2C[C@H]3COC[C@H]3C2)cc2c1c(=O)n(-c1cnc3cc(F)ccn13)c(=O)n2-c1ccc(F)c(Cl)c1 [Compound I-0985]
(A) > 7.00

(Q) Would you kindly share the measured pIC50 for Cn1cnc(Cn2c(=O)c3c(=O)[nH]c(-c4cc(C#N)ccc4Cl)cc3n(Cc3cc(F)c(F)c(F)c3)c2=O)n1 [Compound I-0177] ?
(A) 7.47

(Q) I'd like to know its pIC50. The molecule in question is COc1nc(N2CC[C@@H](F)C2)cc2c1c(=O)n(-c1cnc3cc(F)ccn13)c(=O)n2-c1ccc(F)c(F)c1 [Compound I-0982]
(A) > 7.00

(Q) What value of pIC50 has been reported for the following molecule? COc1nc(N2CCC(O)(CF)C2)cc2c1c(=O)n(-c1cnc3cc(F)ccn13)c(=O)n2-c1ccc(F)c(Cl)c1 (stereo not shown) [Compound I-1037]
(A) > 7.00

(Q) I'd like to know its pIC50. The molecule in question is COc1cc(-c2cn3nncc3cc2Cl)cc2c1c(=O)n(Cc1ncn(C)n1)c(=O)n2Cc1cc(F)c(F)c(F)c1 [Compound I-0914]
(A) > 7.00

(Q) # input molecule: COc1cc(-c2cc3c(cc2Cl)NC(=O)C3)cc2c1c(=O)n(Cc1ncn(C)n1)c(=O)n2Cc1cc(F)c(F)c(F)c1F [Compound I-0047] ; wanted: its pIC50
(A) > 7.00

(Q) For the molecule shown here, COc1cc(-c2cc3c(cc2Cl)NC(=O)C3)cc2c1c(=O)n(-c1cncc(C)c1)c(=O)n2Cc1ccc(F)c(C#N)c1 [Compound I-0060] , give the reported pIC50.
(A) 8.57

###

- target-under-test: UniProt P0DTD1
- test: Inhibitory activity test against SARS-CoV-2 3CL proteases
- Format: biochemical
- assay-setup: read-out: IC50 (50% SARS-CoV-2 3CL protease inhibitory concentration)
observation-type: IC50

(Q) Item COCCCc1cc2c(c(OC)n1)c(=O)n(-c1cnc3cc(F)ccn13)c(=O)n2-c1ccc(F)c(Cl)c1 [Compound I-1062] has what recorded IC50?
(A) < 100 nM

(Q) Need IC50 of COc1cc(-c2cc(C(N)=O)ccc2Cl)cc2c1c(=O)n(-c1cncc(C)c1)c(=O)n2Cc1cc(F)c(F)c(F)c1 [Compound I-0067] , thanks.
(A) < 100 nM

(Q) I am curious: what IC50 value has been reported for COc1nc(N2CC[C@@H](C#N)C2)cc2c1c(=O)n(-c1cncc(OCF)c1)c(=O)n2-c1ccc(F)c(Cl)c1 [Compound I-0941] ?
(A) < 100 nM

(Q) Dear colleague, I am looking for the recorded IC50 of the following molecule: COc1cc(-c2cc(C(C)=O)ccc2Cl)cc2c1c(=O)n(Cc1ncn(C)n1)c(=O)n2Cc1cc(F)c(F)c(F)c1 [Compound I-0116]
(A) 12 nM

(Q) # get_value(readout='IC50', item= COc1nc(N2CC[C@H](CO)C2)cc2c1c(=O)n(-c1cnc3cc(F)ccn13)c(=O)n2-c1ccc(F)c(Cl)c1 [Compound I-0749] )
(A) < 100 nM

(Q) Please look up its IC50: COc1nc2c(=O)n(Cc3ncn(C)n3)c(=O)n(Cc3cc(C#N)c(F)cc3C)c2cc1-c1cc(C#N)ccc1Cl [Compound I-0723]
(A) < 100 nM

(Q) Look up IC50: COc1nc2c(=O)n(Cc3ncn(C)n3)c(=O)n(Cc3cc(F)c(F)c(Cl)c3)c2cc1-c1nc(C(C)(C)O)ccc1Cl [Compound I-0880]
(A) 4.4 nM

(Q) Item under review: COc1nc(N2C[C@@H](F)[C@@H](F)C2)cc2c1c(=O)n(-c1cnc3cc(F)ccn13)c(=O)n2-c1ccc(F)c(C(F)F)c1 [Compound I-0961] . Reported IC50?
(A) 3.4 nM

(Q) So what does the record say about IC50 for Cn1cnc(Cn2c(=O)c3ncc(N4C[C@H]5C[C@@H]4CN5)nc3n(Cc3cc(F)c(F)c(F)c3)c2=O)n1 [Compound I-0684] ?
(A) 370 nM

(Q) // returns reported IC50 for input COc1nc(N2CCC(N(C)C)C2)cc2c1c(=O)n(-c1cnc3cc(F)ccn13)c(=O)n2-c1ccc(F)c(Cl)c1 (stereo not shown) [Compound I-1055]
(A) < 100 nM

(Q) Returns the measured IC50 for the input molecule. Input: [2H]C([2H])([2H])O[C@@H]1CCN(c2cc3c(c(OC)n2)c(=O)n(-c2cncc(C#N)c2)c(=O)n3-c2ccc(F)c(Cl)c2)C1 [Compound I-0948]
(A) < 100 nM

(Q) Give its IC50 value. Item: COc1nc(N2CCC3(COC3)C2)cc2c1c(=O)n(-c1cnc3cc(F)ccn13)c(=O)n2-c1ccc(F)c(Cl)c1 [Compound I-1039]
(A) < 100 nM

(Q) Sample N#Cc1ccc(Cl)c(-c2cc3c(c4c2CCO4)c(=O)n(Cc2cc(F)c[nH]c2=O)c(=O)n3Cc2cc(F)c(F)c(F)c2)c1 [Compound I-0504] — what was its IC50?
(A) < 100 nM

###

- target-under-test: SARS-CoV-2 3CL protease (Severe acute respiratory syndrome coronavirus 2, UniProt P0DTD1)
- test: Inhibitory activity test against SARS-CoV-2 3CL proteases
- Format: biochemical
- assay-setup: read-out: IC50 (50% SARS-CoV-2 3CL protease inhibitory concentration)
observation-type: IC50 (nM)
Kindly answer with a numeric value in nM, unit omitted.

(Q) Quick check: IC50 of COc1cc(-c2cc3c(C#N)c[nH]c3cc2Cl)cc2c1c(=O)n(Cc1ncn(C)n1)c(=O)n2Cc1cc(F)c(F)c(F)c1 [Compound I-0902] ?
(A) 8.2

(Q) Consider the compound shown here: COc1nc2c(=O)n(Cc3ncn(C)n3)c(=O)n(Cc3cc(F)c(F)c(Cl)c3)c2cc1-c1cc(C(C)(C)O)ccc1Cl [Compound I-0701] What is its recorded IC50?
(A) 5

(Q) // lookup IC50 for COc1nc2c(=O)n(Cc3ncn(C)n3)c(=O)n(Cc3cc(F)c(F)c(Cl)c3)c2cc1-c1cc(N=S(C)(C)=O)ccc1Cl [Compound I-0887]
(A) 9.8

(Q) Which IC50 value is on record for CN=S(C)(=O)c1ccc(Cl)c(-c2cc(OC)c3c(=O)n(-c4cncc(Cl)c4)c(=O)n(Cc4cc(F)c(F)c(F)c4)c3c2)c1 (stereo not shown) [Compound I-0199] ?
(A) 16

(Q) Look up IC50: CCNc1cc2c(c(OC)n1)c(=O)n(-c1cncc(Cl)c1)c(=O)n2-c1ccc(F)c(Cl)c1 [Compound I-0966]
(A) 3.8

(Q) Could you tell me which IC50 is on file for COc1cc(-c2cc(S(C)(=O)=O)ccc2Cl)cc2c1c(=O)n(Cc1ncn(C)n1)c(=O)n2Cc1cc(F)c(F)c(F)c1 [Compound I-0122] ?
(A) 27

(Q) What measured IC50 goes with N#Cc1ccc(Cl)c(-c2cc3c(c(=O)[nH]2)c(=O)n(-c2cncc(Cl)c2)c(=O)n3Cc2cc(F)c(F)c(F)c2)c1 [Compound I-0431] ?
(A) 11
